Data credit: patent US20120165331A1

Could you please report measured pKi for the items listed next?
- Subject Of Test: human orexin 2 receptor (Homo sapiens)
- Sequence (O43614 whole entry): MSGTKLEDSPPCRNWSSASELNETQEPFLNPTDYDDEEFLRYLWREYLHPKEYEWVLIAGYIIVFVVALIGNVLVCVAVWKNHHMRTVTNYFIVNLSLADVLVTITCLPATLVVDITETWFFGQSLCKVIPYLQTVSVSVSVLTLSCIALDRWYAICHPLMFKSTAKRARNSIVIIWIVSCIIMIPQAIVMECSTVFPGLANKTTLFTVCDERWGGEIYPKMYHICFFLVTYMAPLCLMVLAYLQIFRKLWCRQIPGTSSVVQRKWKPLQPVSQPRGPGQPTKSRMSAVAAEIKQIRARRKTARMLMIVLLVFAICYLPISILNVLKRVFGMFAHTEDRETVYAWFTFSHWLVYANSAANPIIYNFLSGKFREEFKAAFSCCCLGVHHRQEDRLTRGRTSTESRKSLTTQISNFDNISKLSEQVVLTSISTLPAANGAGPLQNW
- Run Description: Calcium accumulation in cells (FLIPR), antagonism of orexin A, human orexin 2 receptor
- Experimental Conditions: calcium accumulation, antagonism of orexin A, Cheng-Prusoff corrected; read-out: FLIPR hOx2R Ki
// pKi: -log10(molar conc.)

compound COc1cccc(-c2ocnc2CN2CCOC3(CCN(c4nc(C)cc(OC)n4)CC3)C2=O)c1 , pKi observed: 8.70

Measured pKi, COc1ccc2[nH]nc(CN3CCNC4(CCN(c5nc(C)cc(C)n5)CC4)C3=O)c2c1 : 8.57

Lab book: pKi of COc1cccc(-c2oc(C)nc2CN2CCNC3(CCN(c4nc(C)cc(C#N)n4)CC3)C2=O)c1 noted as 7.51

The compound listed as O=C1COCC2(CCN(c3cnc4ccccc4n3)CC2)N1Cc1cccc2[nH]ccc12 shows pKi equal to 7.54

// field: pKi; key: COCc1cccc(-c2ocnc2CN2CCNC3(CCN(c4nc(C)cc(OC)n4)CC3)C2=O)c1 ; value = 7.12

Data point: Cc1cc(C)nc(N2CCC3(CC2)NCCN(Cc2nn(C)cc2-c2cccc(OC(F)(F)F)c2)C3=O)n1 ; pKi = 8.30

The compound listed as O=C1OCC2(CCN(c3cnc4ccccc4n3)CC2)N1Cc1c[nH]c2ccccc12 shows pKi equal to 6.32

Noted for COc1ccnc(N2CCC3(CCN(Cc4n[nH]c5ccccc45)C3=O)C2)n1 (stereo not shown) : its pKi reads 6.15

The compound identified as Cc1cc(C)nc(N2CCC3(CC2)NCCN(Cc2nn(C)cc2-c2cccc(N(C)C)c2)C3=O)n1 registered its pKi at 6.34

Memo: Cc1cnc(N2CCC3(CC2)OCCN(Cc2c[nH]c4ccccc24)C3=O)nc1C , reported pKi: 6.74

pKi measured on CCc1cccc(-c2cn(C)nc2CN2CCNC3(CCN(c4nc(C)cc(C)n4)CC3)C2=O)c1 = 8.30

Data point: COc1cc(C)nc(N2CCC3(CC2)NCCN(Cc2c[nH]c4ccccc24)C3=O)n1 ; pKi = 8.10

So, Cc1cc(C)nc(N2CCC3(CC2)NCN(Cc2c[nH]c4ccccc24)C3=O)n1 ? Its pKi was 5.67

Per the records, this compound ( Cc1cc(C)nc(N2CCC3(CC2)OCCN(Cc2ccccc2-c2ccco2)C3=O)n1 ) has pKi equal to 6.85

# pKi of Cc1cc(C)nc(N2CCC3(CC2)NCCN(Cc2conc2-c2ccccc2)C3=O)n1 = 6.18

Summary for this compound, Cc1cc(C)nc(N2CCC3(CC2)OCCN(Cc2nn(C)cc2-c2ccccc2)C3=O)n1 : pKi is 7.12

Reported pKi for Cc1cc(C)nc(N2CCC3(CC2)NCCN(Cc2nocc2-c2ccccc2)C3=O)n1 was 5.66

The reported value for COc1cc(C)nc(N2CCC3(CCN(Cc4c[nH]c5ncccc45)C3=O)CC2)n1 in terms of pKi is 6.61

compound O=C1N(Cc2c[nH]c3ccccc23)CCCC12CCN(c1nc3ccccc3[nH]1)C2 (stereo not shown) , pKi observed: 7.17

Documented pKi of COc1cc(N2CCC3(CCN(Cc4c[nH]c5ccccc45)C3=O)C2)nc(C2CC2)n1 (stereo not shown) : 6.43

Cn1c(N2CCC3(CCN(Cc4ccccc4-c4ccccc4)C3=O)CC2)nc2ccccc21 has a reported pKi of 6.19

Field pKi (entry COc1cccc(-c2nn(C)nc2CN2CCNC3(CCN(c4nc(C)cc(C)n4)CC3)C2=O)c1 ) reads 8.15

Short answer for Cc1cc(C)nc(N2CCC3(CC2)NCCN(Cc2nn(C)nc2-c2cccc(N4CCOCC4)c2)C3=O)n1 : pKi was 7.25

Form: compound = Cc1noc(-c2ccnc(N3CCC4(CCN(Cc5c[nH]c6ccccc56)C4=O)C3)c2)n1 (stereo not shown) ; pKi = 5.83

For reference, reported pKi for Cc1ccnc(N2CCC3(CCCN(Cc4c[nH]c5ccccc45)C3=O)C2)n1 (stereo not shown) stands at 7.42

Memo: Cc1ccnc(N2CCC3(CCN(Cc4c[nH]c5ccccc45)C3=O)CC2)n1 , reported pKi: 6.53

get_value(item= Cc1cc(C)nc(N2CCC3(CC2)OCCN(Cc2n[nH]cc2-c2ccccc2)C3=O)n1 , readout=pKi) returns 7.42

The compound listed as COc1cccc(-c2oc(C)nc2CN2CCNC3(CCN(c4nccc(C)n4)CC3)C2=O)c1 shows pKi equal to 6.97

---

Exercise: for every item that follows, state its recorded pKd.
- Subject Of Test: human orexin 1 receptor (Homo sapiens, UniProt O43613)
- Construct: expressed in transfected cells
- Sequence (O43613 1-425): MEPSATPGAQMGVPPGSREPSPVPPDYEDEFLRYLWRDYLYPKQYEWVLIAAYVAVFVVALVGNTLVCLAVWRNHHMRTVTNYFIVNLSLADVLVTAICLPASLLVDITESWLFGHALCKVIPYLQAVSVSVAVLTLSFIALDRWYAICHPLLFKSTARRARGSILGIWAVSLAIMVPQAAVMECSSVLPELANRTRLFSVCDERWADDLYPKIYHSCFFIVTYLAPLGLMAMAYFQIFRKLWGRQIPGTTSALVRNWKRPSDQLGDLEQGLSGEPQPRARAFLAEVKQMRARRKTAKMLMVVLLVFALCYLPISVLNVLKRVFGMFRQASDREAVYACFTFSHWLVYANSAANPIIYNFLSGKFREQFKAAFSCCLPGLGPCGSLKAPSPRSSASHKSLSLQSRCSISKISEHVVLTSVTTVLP
- Run Description: Radioligand binding assay ([3H]-SB649868 competition), human orexin 1 receptor
- Experimental Conditions: radioligand [3H]-SB649868; read-out: Binding hOx1R Kd
- Method: Radioligand Binding Assay […] Bound radioactivity was measured, and data were analysed with the program XLFIT or Graphpad Prism. Protein concentration was determined according to the Bradford/BioRad Protein Assay Kit. […]
Here pKd is given on a logarithmic scale as minus log10 of the concentration in mol/L.

Given the compound Cc1cc(C)nc(N2CCC3(CC2)NCCN(Cc2nn(C)cc2-c2cccc(C(C)C)c2)C3=O)n1 and test system human orexin 1 receptor (Homo sapiens, UniProt O43613), the measured pKd is 5.84

Item COc1cccc(-c2nn(C)nc2CN2CCNC3(CCN(c4nc(C)cc(C)n4)CC3)C2=O)c1 ; assay system human orexin 1 receptor (Homo sapiens, UniProt O43613); pKd reported as 6.03

Entry Cc1cc(C)nc(N2CCC3(CC2)NCCN(Cc2nn(C)cc2-c2cccc(OC(F)(F)F)c2)C3=O)n1 ; assay system human orexin 1 receptor (Homo sapiens, UniProt O43613); pKd recorded at 5.41

COc1ccc2[nH]cc(CN3CCNC4(CCN(c5nc(C)cc(C)n5)CC4)C3=O)c2c1 tested on human orexin 1 receptor (Homo sapiens, UniProt O43613) gave pKd: 6.63

Entry Cc1cc(C)nc(N2CCC3(CC2)NCCN(Cc2nn(C)nc2-c2cccc(N4CCOCC4)c2)C3=O)n1 : pKd on human orexin 1 receptor (Homo sapiens, UniProt O43613) = 5.55

Noted pKd for Cc1cc(C)nc(N2CCC3(CC2)NCCN(Cc2nn(C)cc2-c2cccc(C(F)(F)F)c2)C3=O)n1 , tested on human orexin 1 receptor (Homo sapiens, UniProt O43613): 5.50

// pKd (human orexin 1 receptor (Homo sapiens, UniProt O43613)) for COc1cc(C)nc(N2CCC3(CC2)OCCN(Cc2c[nH]c4ncccc24)C3=O)n1 = 5.45

Kindly note: human orexin 1 receptor (Homo sapiens, UniProt O43613), Cc1cc(C)nc(N2CCC3(CC2)NCCN(Cc2nn(C)cc2-c2cccc(C(F)F)c2)C3=O)n1 , pKd value reported: 5.77

---

- Subject Of Test: human orexin 2 receptor (Homo sapiens)
- Run Description: Calcium accumulation in cells (FLIPR), antagonism of orexin A, human orexin 2 receptor
- Experimental Conditions: calcium accumulation, antagonism of orexin A, Cheng-Prusoff corrected; read-out: FLIPR hOx2R Ki
Measured Parameter: pKi
Recall that pKi is obtained by taking minus log10 of the concentration measured in molar.

pKi reading for O=C1CCC2(CCN(c3cnc4ccccc4n3)C2)N1Cc1cccc2[nH]ccc12 (stereo not drawn) [Example 9.1] : 5.86

pKi in this record for O=C1N(Cc2c[nH]c3ccccc23)CCC12CCN(c1ccnc(-n3ccnc3)n1)C2 (stereo not drawn) [Example 5.19] : 6.18

molecule Cc1cc(C)nc(N2CCC3(CC2)NCCN(Cc2nn(C)cc2-c2cccc(C#N)c2)C3=O)n1 [Example 1.44] , pKi observed: 5.83

Per the records, this molecule ( COc1nc(C)cc(N2CCC3(CCN(Cc4c[nH]c5ccccc45)C3=O)C2)n1 (stereo not drawn) [Example 5.36] ) has pKi equal to 6.03

The measured pKi associated with COc1ccnc(N2CCC3(CC2)NCCN(Cc2nc(C)oc2-c2ccccc2)C3=O)n1 [Example 1.22] reads 5.99

Data point: O=C1N(Cc2ccccc2-c2ccccc2)CCC12CCN(c1nc3ccccc3s1)CC2 [Example 3.10] ; pKi = 5.97
